Reference source: patent US9776976B2

Overview of recorded IC50 for various compounds
study_target: human PPAR β/δ (Homo sapiens, UniProt Q03181)
Sequence (Q03181 whole entry): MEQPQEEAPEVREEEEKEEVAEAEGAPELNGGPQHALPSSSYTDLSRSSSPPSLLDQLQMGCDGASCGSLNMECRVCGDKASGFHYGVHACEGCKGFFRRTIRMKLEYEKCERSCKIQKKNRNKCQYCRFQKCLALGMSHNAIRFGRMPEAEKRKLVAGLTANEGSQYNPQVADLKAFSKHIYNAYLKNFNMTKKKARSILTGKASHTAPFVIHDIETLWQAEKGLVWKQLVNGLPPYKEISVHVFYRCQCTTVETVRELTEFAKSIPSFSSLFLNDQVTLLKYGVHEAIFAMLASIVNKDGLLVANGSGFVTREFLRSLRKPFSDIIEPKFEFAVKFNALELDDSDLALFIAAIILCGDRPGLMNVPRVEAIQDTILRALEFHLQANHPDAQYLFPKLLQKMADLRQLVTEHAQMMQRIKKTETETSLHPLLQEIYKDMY
assay_overview: Human PPAR β/δ reporter assay (luciferase, Indigo Biosciences kit)
measurement_setup: antagonist mode, agonist at ~EC80; read-out: PPARδ Luciferase IC50
Experimental: Target Selectivity Assays To determine species selectivity, a Mouse PPARα Reporter Assay System was used (Indigo Biosciences, Cat. #M00111). Activity of test compounds to antagonize or agonize other isoforms of human PPAR, for example β/δ and γ, were assessed using the corresponding kits from Indigo Biosciences (Cat. #IB00121 and #IB00101, respectively). […]
Give the value, in units of nM, as a plain number.

Fill in the recorded IC50 for this compound, with human PPAR β/δ (Homo sapiens, UniProt Q03181) as test system: CCOc1ccc(-c2ccc(CCCc3nn(-c4ccc(C(F)(F)F)cc4)c(=O)n3-c3cc(F)ccc3F)cc2)cc1CC(=O)O
61

Try this compound next: CCOc1ccc(-c2ccc(CCCc3nn(-c4ccc(C(F)(F)F)cc4)c(=O)n3C3CCC(C)CC3)cc2)cc1CC(=O)O (stereo not shown)
125

Try this compound next: CCOc1ccc(-c2ccc(CCCc3nn(-c4ccc(C(F)(F)F)cc4)c(=O)n3-c3ccccc3F)cc2C)cc1CC(=O)O
312

Try this compound next: CCCn1c(CCCc2ccc(-c3ccc(OCC)c(CC(=O)O)c3)cc2)nn(-c2ccc(C(F)(F)F)cc2)c1=O
474
